Examples of compounds with documented viscosity follow.
Conditions: 293.15 K; 101.33 kPa; Liquid; Falling or rolling sphere viscometry

{"columns": ["compound", "unitName", "viscosity"],
 "data": [
  ["CCn1cc[n+](C)c1.O=S(=O)([N-]S(=O)(=O)C(F)(F)F)C(F)(F)F", "mPa·s", 37.23],
  ["CCCCn1cc[n+](C)c1.F[P-](F)(F)(F)(F)F [1-butyl-3-methylimidazolium hexafluorophosphate]", "mPa·s", 345.1],
  ["CCCCn1cc[n+](C)c1.CCOS(=O)(=O)[O-] [1-butyl-3-methyl-1H-imidazolium ethyl sulfate]", "mPa·s", 334],
  ["CCCC[n+]1ccn(C)c1.O=S(=O)([N-]S(=O)(=O)C(F)(F)F)C(F)(F)F", "mPa·s", 54.17],
  ["CCCCn1cc[n+](C)c1.O=S(=O)([O-])C(F)(F)F [1-butyl-3-methylimidazolium trifluoromethanesulfonate]", "mPa·s", 106.5]
]}

Measured values drawn from the NIST ThermoML archive (doi:10.1016/j.jct.2017.08.032) for this set.
